Data credit: patent US20190241648A1

Target: T1, human ApoC3 (huApoC3), native protein purified from human serum (human, UniProt P02656 21-99)
T1 construct: Athens Research and Technology; randomly biotinylated in some assays; also called Apolipoprotein C3
T1 sequence (P02656 21-99): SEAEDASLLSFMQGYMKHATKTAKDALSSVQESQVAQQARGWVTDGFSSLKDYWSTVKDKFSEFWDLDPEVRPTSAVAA
Assay: SPR Biacore, huApoC3 on chip, scFv-Fc as analyte
Known koff of a selection of binders
Give a bare numeral; the unit s⁻¹ is implied.

Binder: 5E5 scFv-Fc (Fc fusion, scFv-Fc format) VH: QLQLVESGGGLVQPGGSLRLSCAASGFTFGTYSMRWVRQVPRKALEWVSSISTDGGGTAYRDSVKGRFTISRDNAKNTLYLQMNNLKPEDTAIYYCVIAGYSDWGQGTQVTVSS VL: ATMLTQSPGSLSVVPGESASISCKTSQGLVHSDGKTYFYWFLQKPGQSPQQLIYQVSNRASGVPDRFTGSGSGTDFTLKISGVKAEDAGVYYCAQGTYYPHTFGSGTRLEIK
koff (s⁻¹): 0.000437

Q: Supply koff value. Item: 8B7 scFv-Fc (Fc fusion, scFv-Fc format) VH: EVQVQESGPGLVKPSQTLSLTCTVSGASITNRRYAWTWIRQPPGKGLEWMGVIVYDGNTHVSPSLRSRTSISRDTSKNQFSLQLSSLTPEDTAVYYCARVLLLRDPLSLDYWGQGTQVTVSS VL: SSALTQPPSMSGTLGKTLTISCAGTSSDIGAYNFVSWYQQLPGTAPKLLIYDIDKRASGIPDRFSGSKSGNTASLSISGLQSEDEADYYCAAYGSRDNVVFGGGTHLTVL
Ans: 0.000675

Q: Supply koff value. Item: 5A7 scFv-Fc (Fc fusion, scFv-Fc format) VH: EVQVQESGPGLVKPSQTLSLTCTVSGASITNRRYAWTWIRQPPGKGLEWMGVIVYDGNTHVSPSLRSRTSISRDTSKNQFSLQLSSLTPEDTAVYYCARVLLLRDPLSLDYWGQGTQVTVSS VL: SSALTQPPSMSGTLGKTLTISCAGTSSDIGAYNFVSWYQQLPGTAPKLLIYDIDKRASGIPDRFSGSKSGNTASLSISGLQSEDEADYYCAAYGSRDNVVFGGGTHLTVL
Ans: 0.000647
